Where do these numbers come from? They come from the supplement of paper PMC11061612.

Test system: COLO-678 (Colorectal Carcinoma);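 further: after 72 h of two-drug dosing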
experimentSummary: Bliss excess, mean over the matrix (fraction); higher = more synergy
Would you mind telling me the reported Bliss excess of each entry?

Could you tell me Bliss excess for each of these molecules? They are listed below.
1. COc1cccc(OCCCN)c1-c1cc(Nc2cnc(C#N)cn2)n[nH]1 [Prexasertib] + CCc1c2c(nc3ccc(O)cc13)-c1cc3c(c(=O)n1C2)COC(=O)[C@]3(O)CC [SN-38] (first compound max 1 µM, 7x7, partner max 0.3 µM)
2. Cn1cnc2c(F)c(Nc3ccc(Br)cc3Cl)c(C(=O)NOCCO)cc21 [Selumetinib] + C=CCn1c(=O)c2cnc(Nc3ccc(N4CCN(C)CC4)cc3)nc2n1-c1cccc(C(C)(C)O)n1 [AZD1775] (first compound max 10 µM, partner max 1 µM)
3. Cc1cc2ncnn2cc1Nc1ncc2c(n1)n(C1CCOCC1)c(=O)n2C [AZD7648] + C[C@@H]1COCCN1C2=NC(=NC(=C2)C3(CC3)[S@](=N)(=O)C)C4=C5C=CNC5=NC=C4 [AZD6738] (first compound max 10 µM, 7x7, partner max 10 µM)
4. NC1(C(=O)N[C@@H](CCO)c2ccc(Cl)cc2)CCN(c2ncnc3[nH]ccc23)CC1 [Capivasertib] + CC(=O)c1c(C)c2cnc(Nc3ccc(N4CCNCC4)cn3)nc2n(C2CCCC2)c1=O [Palbociclib] (first compound max 10 µM, 7x7, partner max 10 µM)

Result block:
[-0.0355, 0.0011, -0.0346, -0.0295]
